# System: PPARa:RXRa (NR concentration 270 nM, RXRa partner concentration 90 nM)
# procedure_text: PBM binding z-score (relative to random genomic background probes); higher = stronger binding; sequences stand for … in GC…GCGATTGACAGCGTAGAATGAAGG
# cutoff 4 applies to PBM binding z-score; >= gives yes (1), < gives no (0)

Consider the following illustrative entries.
{"sequence_record": "ATCGAAAGGTCGAAGGTTAGTATACCCACCCGAA", "classification": "yes (1)"}
{"sequence_record": "TCTTGTAGATCAGCAGGTAAAGAAAGCTGGCCAA", "classification": "no (0)"}
{"sequence_record": "CATCCAAGGTCAGAGAGGTCAGTGAATGCCGAGT", "classification": "yes (1)"}
{"sequence_record": "CGTCAAAGATCAACTAAGGTAACGTAAAGCACGC", "classification": "no (0)"}
{"sequence_record": "CTCGAAAGGTCGTGCTCAGGTGAGTAGACCAAAC", "classification": "yes (1)"}

## Task State whether the measured PBM binding z-score reaches 4, counting equality as reaching it, for CGTCCAAGGTCCGCAGGTCAGTGAAAGCGACGTG
## Result no (0)

## Task Say whether CCGACTGGGGGAGAAAGGTTACCATACCATCCGG shows PBM binding z-score of 4 or more.
## Result no (0)

## Task Does PBM binding z-score meet or surpass 4 for ATCGAAAGGTCGGCGAGGTGAGTATACACCGTTT ?
## Result no (0)

## Task Assess whether reported PBM binding z-score for TAGCCTAGGTCATTGGGCCAGTATCGTACGCATC sits at 4 or higher.
## Result no (0)

====

# System: RARg:RXRa (NR concentration 270 nM, RXRa partner concentration 90 nM)
# procedure_text: PBM binding z-score (relative to random genomic background probes); higher = stronger binding; sequences stand for … in GC…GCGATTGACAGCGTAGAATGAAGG
Each entry gets No if its PBM binding z-score stays under 0.4, and Yes if its PBM binding z-score is 0.4 or above.

Answered cases to consult:
{"sequence_record": "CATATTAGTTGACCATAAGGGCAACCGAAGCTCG", "classification": "Yes"}
{"sequence_record": "CCGACTGGGGCATAAGGTTCCCATAAGCCAGCCC", "classification": "No"}
{"sequence_record": "GCTAGCACGCCATTTGGGTCACTCAATGACGGGC", "classification": "Yes"}
{"sequence_record": "TCGATTAGTTGAAGGGCAACCGACGAGTCCGTTT", "classification": "No"}

## Task # bool: PBM binding z-score of TTATATAGGTAAACAGGTGAAAGTCCGTAAGTTA >= 0.4
## Result Yes

====

# Tested on: RARb:RXRa (NR concentration 270 nM, RXRa partner concentration 90 nM)
# procedure_text: PBM binding z-score (relative to random genomic background probes); higher = stronger binding; sequences stand for … in GC…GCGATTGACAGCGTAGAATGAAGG
Threshold rule: PBM binding z-score greater than or equal to 4 is Criterion met; below that, Criterion not met.

Record excerpt, results attached:
{"sequence_record": "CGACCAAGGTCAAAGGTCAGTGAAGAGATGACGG", "classification": "Criterion met"}
{"sequence_record": "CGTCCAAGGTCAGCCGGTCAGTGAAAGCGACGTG", "classification": "Criterion met"}
{"sequence_record": "TCTAGTAGATCAATAGAGGTTAAGAAAGTGCGCT", "classification": "Criterion not met"}
{"sequence_record": "CAAACTAGGCCACCGGAAGGTCAAAGTCCGCATG", "classification": "Criterion not met"}

## Task Check this sequence for PBM binding z-score at or above 4: CCTCGGAGGACAACAGTAGGTCAGAGCTGCCAGA
## Result Criterion not met

## Task Determine whether measured PBM binding z-score meets or exceeds 4 for CCTTACGGGTCAAGGTTTTAGCACGGGTGGTACG
## Result Criterion met

## Task Threshold query (PBM binding z-score >= 4) on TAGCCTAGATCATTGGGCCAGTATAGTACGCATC
## Result Criterion not met

====

# System: PPARg:RXRa 270nM:90nM, anti-RXR (NR concentration 270 nM, RXRa partner concentration 90 nM)
# procedure_text: PBM binding z-score (relative to random genomic background probes); higher = stronger binding; sequences stand for … in GC…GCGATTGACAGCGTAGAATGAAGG
Quick reference: PBM binding z-score of the listed items.
Give only the figure.

Answered cases to consult:
{"sequence_record": "TTACCAAGGGGAGCTGAGGTCGTTGATCCAACTC", "PBM binding z-score": 0.37}
{"sequence_record": "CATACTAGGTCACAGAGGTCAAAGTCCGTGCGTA", "PBM binding z-score": 7.72}
{"sequence_record": "ACAGACAGTTGAGTGAAGGTAACTCAGCTGGACG", "PBM binding z-score": -0.26}
{"sequence_record": "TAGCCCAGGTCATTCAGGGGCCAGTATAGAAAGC", "PBM binding z-score": 2.46}
{"sequence_record": "ATCTCTAGGTATCAAGTTCAGTGAAAGAGAGGAC", "PBM binding z-score": 1.44}

Recorded result, ATACCAAGGTGGTCGTGAGGTCGTTGATACTAAC , PBM binding z-score: 0.0614

Data point: TTACCAAGGTGAAGGTCCTTGATCCCTCTGTAGA ; PBM binding z-score = 2.39

The sequence listed as CGAACTAGGTCAGAACAGGACCGTGAAGGATGAT shows PBM binding z-score equal to 4.33

The sequence TTACCAAGGTGAGCTGAGGTCGTGGATCCAACTC showed PBM binding z-score equal to 0.913

Lab note: measured PBM binding z-score of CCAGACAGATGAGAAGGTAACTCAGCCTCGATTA was -0.402

The sequence GCTGCTAGGCCAGGTTGGTCAGCTAACGGGTACG showed PBM binding z-score equal to -1.01

Please fill in: PBM binding z-score reported for CAAACTAGGTCACGAAAGTTCAAAGTCGAATGAC = 8.29

====

// reported PBM binding z-score for each item listed
# Tested on: VDR homodimer (NR concentration 270 nM)
# procedure_text: PBM binding z-score (relative to random genomic background probes); higher = stronger binding; sequences stand for … in GC…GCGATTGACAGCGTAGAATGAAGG
Form: value (number only, do not type unit).

Below, 2 sequences whose answers are already recorded.
{"sequence_record": "ATACCAAGGTGATCTTGAGGTCGTTGATACTAAC", "quantitative_readout": 3.21}
{"sequence_record": "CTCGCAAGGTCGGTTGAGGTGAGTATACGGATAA", "quantitative_readout": 0.439}

# PBM binding z-score of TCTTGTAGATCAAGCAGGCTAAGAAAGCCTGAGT = -0.349

====

# System: PPARg DBDmut IVT, anti-PPARg (DBD mutation: PPARg1 K132A/R137A, NR concentration 270 nM)
# procedure_text: PBM binding z-score (relative to random genomic background probes); higher = stronger binding; sequences stand for … in GC…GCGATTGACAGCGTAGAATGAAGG
Classes (PBM binding z-score): low = under -0.05, intermediate = from -0.05 up to 0.3, high = 0.3 and over

Record excerpt, results attached:
{"sequence_record": "ACTATTAGTTGACTTAGGCCAACCGATACGACGC", "assayed_target": "PPARg DBDmut IVT, anti-PPARg (DBD mutation: PPARg1 K132A/R137A, NR concentration 270 nM)", "classification": "high"}
{"sequence_record": "CGTCAAAGTTCAAGGTAGCGTAACAGAAAGCAGC", "assayed_target": "PPARg DBDmut IVT, anti-PPARg (DBD mutation: PPARg1 K132A/R137A, NR concentration 270 nM)", "classification": "intermediate"}
{"sequence_record": "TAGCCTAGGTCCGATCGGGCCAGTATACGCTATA", "assayed_target": "PPARg DBDmut IVT, anti-PPARg (DBD mutation: PPARg1 K132A/R137A, NR concentration 270 nM)", "classification": "low"}
{"sequence_record": "CAGCGTAGGTCAGGGCCAGTATAGGAGGAACGTT", "assayed_target": "PPARg DBDmut IVT, anti-PPARg (DBD mutation: PPARg1 K132A/R137A, NR concentration 270 nM)", "classification": "low"}

## Task Class (by measured PBM binding z-score) for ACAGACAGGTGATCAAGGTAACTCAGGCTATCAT
## Result intermediate

## Task // return the class label for ATCGAAGGGTCGAGGTGAGTATAGAGAAAGGGAA
## Result intermediate

## Task # bin lookup: classify AGTCGAAGTTCAGGACGAGGTAACGTAAAGCACG by its PBM binding z-score
## Result low

## Task Looking at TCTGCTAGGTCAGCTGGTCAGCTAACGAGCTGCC , which class would you pick?
## Result low

## Task // return the class label for TCTAGTTGGTCACGGAGGTCAGACACGACGGGTA
## Result intermediate

## Task For this sequence, which bin applies? TCATTTAGGTAAATGCTAGGTGAAAGTCCGATCT
## Result high
